- MEASUREMENT TARGET: human 5-HT2A receptor (Homo sapiens, UniProt P28223)
- Construct: host or cells: CHO-K1
- Sequence (P28223 whole entry): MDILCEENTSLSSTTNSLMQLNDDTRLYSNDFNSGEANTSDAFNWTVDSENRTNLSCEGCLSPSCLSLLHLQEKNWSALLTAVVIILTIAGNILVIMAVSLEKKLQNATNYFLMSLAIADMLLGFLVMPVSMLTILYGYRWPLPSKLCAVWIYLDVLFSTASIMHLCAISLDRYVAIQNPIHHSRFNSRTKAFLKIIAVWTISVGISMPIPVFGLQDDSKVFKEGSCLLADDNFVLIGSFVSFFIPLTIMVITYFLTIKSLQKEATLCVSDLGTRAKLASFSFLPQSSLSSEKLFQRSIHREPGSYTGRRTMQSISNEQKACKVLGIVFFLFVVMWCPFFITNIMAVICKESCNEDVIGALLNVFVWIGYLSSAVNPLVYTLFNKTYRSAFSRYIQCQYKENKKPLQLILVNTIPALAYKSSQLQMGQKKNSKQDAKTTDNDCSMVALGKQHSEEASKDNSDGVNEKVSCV
- PROTOCOL DESCRIPTION: 5HT2A Antagonism Assay (Euroscreen FAST-05051), IP-One HTRF
- Format: cell-based
- EXPERIMENTAL SETUP: 5-HT2A (IC50), CHO-K1 cells expressing human 5-HT2A, reference agonist at EC80, IP-One
MEASUREMENT TYPE: IC50

CNCC1Cc2cccc(F)c2Oc2ccccc21 (single isomer, unassigned) [Compound 86]    < 1 µM

I'm curious: which IC50 was measured for Cc1ccc2c(c1)CC(CN)c1ncccc1O2 (single isomer, unassigned) [Compound 129] tested on human 5-HT2A receptor (Homo sapiens, UniProt P28223)? < 1 µM

I'm curious: which IC50 was measured for CNCC1Cc2ccc(C)cc2Oc2cccnc21 (single isomer, unassigned) [Compound 134] tested on human 5-HT2A receptor (Homo sapiens, UniProt P28223)? < 1 µM

###

- MEASUREMENT TARGET: human TAAR1 receptors (Homo sapiens, UniProt Q96RJ0)
- Sequence (Q96RJ0 1-339): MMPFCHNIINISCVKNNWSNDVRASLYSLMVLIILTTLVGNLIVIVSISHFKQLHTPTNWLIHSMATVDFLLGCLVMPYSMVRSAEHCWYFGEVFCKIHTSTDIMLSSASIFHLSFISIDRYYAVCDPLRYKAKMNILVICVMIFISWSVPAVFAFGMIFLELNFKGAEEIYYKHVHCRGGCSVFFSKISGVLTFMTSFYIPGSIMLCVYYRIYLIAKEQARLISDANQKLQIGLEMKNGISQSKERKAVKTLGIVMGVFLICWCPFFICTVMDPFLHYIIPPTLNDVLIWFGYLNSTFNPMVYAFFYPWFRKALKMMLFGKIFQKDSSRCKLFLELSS
- PROTOCOL DESCRIPTION: TAAR1 Agonism Assay: cAMP HTRF assay for Gs coupled receptor TAAR1 (Euroscreen FAST-0987C)
- EXPERIMENTAL SETUP: CHO-K1 cells expressing human TAAR1, cAMP HTRF
// EC50 lookup, one value per entry

Observe how each entry below is paired with its result.
NCC1Cc2c(F)cccc2Oc2cccnc21 (single isomer, unassigned) [Compound 136]    < 1000 nM
CN(C)CC1Cc2ccccc2Oc2cccnc21 (single isomer, unassigned) [Compound 111]    < 1000 nM
NCC1Oc2ccccc2Oc2ncccc21 (single isomer, unassigned) [Compound 47]    1000 to 10000 nM

Field: next compound
I'm curious: which EC50 was measured for CNCC1Cc2ccccc2Oc2cc(F)ccc21 (single isomer, unassigned) [Compound 4] tested on human TAAR1 receptors (Homo sapiens, UniProt Q96RJ0)? < 1000 nM

###

// IC50 lookup, one value per entry
- MEASUREMENT TARGET: human 5-HT2A receptor (Homo sapiens)
- Construct: host or cells: CHO-K1
- PROTOCOL DESCRIPTION: 5HT2A Antagonism Assay (Euroscreen FAST-05051), IP-One HTRF
- Format: cell-based
- EXPERIMENTAL SETUP: read-out: 5-HT2A (IC50), CHO-K1 cells expressing human 5-HT2A, reference agonist at EC80, IP-One

Observe how each entry below is paired with its result.
CNCC1Cc2ccccc2Oc2ccc(F)cc21 (single isomer, unassigned)    < 1000 nM
NCC1Cc2ncc(Cl)cc2Oc2ccccc21 (single isomer, unassigned)    1000 to 10000 nM
CNCC1Cc2ccncc2Oc2ccccc21 (single isomer, unassigned)    < 1000 nM
CNCC1Cc2c(F)cccc2Oc2ccccc21 (single isomer, unassigned)    < 1000 nM
CNCC1Cc2cc(C)ccc2Oc2cccnc21 (single isomer, unassigned)    < 1000 nM
NCC1Oc2ccccc2Oc2cccnc21 (single isomer, unassigned)    > 10000 nM

I'm curious: which IC50 was measured for CNCC1Cc2ccc(F)cc2Oc2ccccc21 (single isomer, unassigned) tested on human 5-HT2A receptor (Homo sapiens)? < 1000 nM

I'm curious: which IC50 was measured for NCC1Cc2ncccc2Oc2ccc(F)cc21 (single isomer, unassigned) tested on human 5-HT2A receptor (Homo sapiens)? 1000 to 10000 nM

Attribution: patent US20240245658A1
